Data provenance: patent US7345033B2

Target: recombinant MMP-2 (Homo sapiens)
Construct: purchased
Sequence (P08253 110-660, species assumed): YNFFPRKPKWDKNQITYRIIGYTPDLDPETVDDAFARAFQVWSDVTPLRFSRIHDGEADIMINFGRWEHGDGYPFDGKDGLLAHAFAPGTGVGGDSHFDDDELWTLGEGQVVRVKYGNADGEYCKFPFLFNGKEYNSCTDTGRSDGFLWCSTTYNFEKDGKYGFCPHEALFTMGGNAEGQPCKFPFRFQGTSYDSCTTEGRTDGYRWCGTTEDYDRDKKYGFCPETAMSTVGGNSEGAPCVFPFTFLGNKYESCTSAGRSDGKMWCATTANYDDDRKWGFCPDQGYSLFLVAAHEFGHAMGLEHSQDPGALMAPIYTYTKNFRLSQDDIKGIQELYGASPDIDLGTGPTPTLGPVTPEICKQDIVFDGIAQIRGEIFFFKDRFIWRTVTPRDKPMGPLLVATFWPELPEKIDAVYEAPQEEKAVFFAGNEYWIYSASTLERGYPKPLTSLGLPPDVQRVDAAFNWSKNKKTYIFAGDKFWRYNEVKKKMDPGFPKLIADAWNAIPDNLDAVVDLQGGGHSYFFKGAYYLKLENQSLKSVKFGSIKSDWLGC
Assay: MMP inhibitory potency in vitro, succinylated-gelatin colorimetric assay
Assay type: biochemical
Settings: Table 2; read-out: MMP-2 IC50
Procedure: Determination of MMP Inhibitory Potency (IC50 Values) in vitro The commercially available recombinant MMP-2 and MMP-9 enzymes were incubated with succinylated-gelatin at four different concentrations for 3 h. The examined compounds were added at four to six different concentrations to the recombinant enzymes and the inhibitory potencies were expressed in a colorimetric change measured by an ELISA reader. The inhibitory activity (IC50) was calculated from the kinetic data obtained.
The reader will find reported IC50 values listed item by item below.
Observable: IC50 (nM)

C[C@H](NC(=O)P(=O)(O)O)C1CCCCC1 [Compound 9a] = 1000
C[C@@H](NC(=O)P(=O)(O)O)C1CCCCC1 [Compound 9] = 200
